Hello, the source for this data is ChEMBL document CHEMBL1201862, in case you need it.

- System: SW-620
- EXPERIMENT: NCI tumour cell line growth inhibition, 48 h
Calls of active or inactive are those of the source. Rule as the data show it: active = GI50 up to about 1.1 µM and inactive = higher.

MOLECULE	GI50
O=C1N[C@@H]2c3c(Br)sc(Br)c3C(=O)[C@@H]2O1	1.96 µM (inactive)
COc1ccc([S+]([O-])Cc2cc(OC)c(OC)c(OC)c2)cc1 (centres undefined)	30.3 µM (inactive)
COC(=O)[C@H](C)NC(=O)[C@H](CSC)N1C(=O)N[C@@H](C(C)C)C1=O	> 100 µM (inactive)
O=C1NC(=S)N/C1=C\c1ccc(Br)s1	> 100 µM (inactive)
CC(=O)OC1=C(c2ccccc2)S(=O)(=O)c2ccccc21	> 100 µM (inactive)
O=C(NCCCCCCNC(=O)n1cc(F)c(=O)[nH]c1=O)NCCCOCCOCCCNC(=O)C(O)C(O)C(O)C(O)CO (centres undefined)	> 2.5 µM (inactive)
COc1ncc(C=C(C#N)C#N)c(OC)n1	26.2 µM (inactive)
C[C@]12C[C@H](O)[C@H]3[C@@H](CCC4=CC(=O)CC[C@@]43C)[C@@H]1CC[C@@H]2c1csc(-c2ccccc2)n1	39.5 µM (inactive)
C[C@]12C=CC(=O)C=C1CC[C@@H]1[C@@H]2CC[C@]2(C)OC(=O)CC[C@@H]12	> 486 µM (inactive)

---

- Test system: SK-MEL-28
- EXPERIMENT: NCI tumour cell line growth inhibition, 48 h
The source made the active and inactive calls. Rule as the data show it: active = GI50 up to about 1.1 µM and inactive = higher.
Listing of entries alongside the reported GI50.
MEASURE: GI50

COMPOUND	ENDPOINT_RESULT
O=C(NCCCCCCNC(=O)n1cc(F)c(=O)[nH]c1=O)NCCCOCCOCCCNC(=O)C(O)C(O)C(O)C(O)CO (centres undefined)	> 2.5 µM (inactive)
O=C1NC(=S)N/C1=C\c1ccc(Br)s1	> 100 µM (inactive)
CN(C)C(=O)CO/N=C1/C(=C2/C(=O)Nc3ccccc32)Nc2ccccc21	> 100 µM (inactive)
CC(=O)NC(CCCNC(=O)NCCCl)C(=O)NCc1ccccc1 (centres undefined)	> 100 µM (inactive)
O=c1ncccn1[C@@H]1O[C@H](CO)[C@@H](O)[C@@H]1F	> 64 µM (inactive)
CCCn1c(SCCSc2c3ccccc3c(-c3nc(F)nc(F)n3)n2CCC)c2ccccc2c1-c1nc(F)nc(F)n1	> 100 µM (inactive)
C(=C\c1cc(CCc2nc3ccccc3[nH]2)n[nH]1)/c1ccccc1	> 100 µM (inactive)
COC(=O)[C@]1(c2cc3ccccc3[nH]2)CC2CN(C(=O)OCc3ccccc3)C1C=C2OC (some centres undefined)	38 µM (inactive)
Nc1ccc(C(=O)N/C(=C\c2cccc([N+](=O)[O-])c2)c2nc3c(O)nc(S)nc3[nH]2)cc1	> 100 µM (inactive)

---

- Tested on: Malme-3M
- EXPERIMENT: NCI tumour cell line growth inhibition, 48 h
Active and inactive are the calls of the source. Rule as the data show it: active = GI50 up to about 1.1 µM and inactive = higher. Residues, ends and D or L forms follow the SMILES beside them. *: point of attachment. Boc = CC(C)(C)OC(=O)*
Listing of entries alongside the reported GI50.

MOLECULE	GI50
N=C(N)NS(=O)(=O)c1ccc(Nc2c3ccccc3nc3c(C(=O)N4CCN(CCO)CC4)ccc(Cl)c23)cc1	> 100 µM (inactive)
Fc1c(F)c(C(F)(F)F)c(F)c(F)c1N/N=C\c1c[nH]c2ccccc12	3.92 µM (inactive)
COc1cc2c(cc1OC)[C@H]1C(COC(=O)c3ccccc3)CS/C(=N/c3ccccc3)N1CC2 (some centres not stated)	> 100 µM (inactive)
CN1C(=O)[C@](C)(Cc2ccc(F)cc2)N(C(=O)OC(C)(C)C)[C@@H]1C(C)(C)C	> 100 µM (inactive)
C/C(CC(=O)NCCc1ccccc1)=N\NC(=O)C[n+]1ccccc1	> 100 µM (inactive)
CCOc1cc(/C=C/C=C/C=C/c2ccc(N(C)C)cc2)[s+]c2ccccc12	22.9 µM (inactive)
COC(=O)C(Cc1c[nH]c2ccccc12)NC(=O)C(Cc1c[nH]c2ccccc12)NC(=O)C(Cc1c[nH]c2ccccc12)NC(=O)C(Cc1c[nH]c2ccccc12)NC(=O)C(Cc1c[nH]c2ccccc12)NC(=O)C(Cc1c[nH]c2ccccc12)NC(=O)OC(C)(C)C (configuration not stated) (Boc-WWWWWW-OMe; configuration not given here)	69.5 µM (inactive)
